Test system: RAW264.7
protocol-notes: Antiinflammatory action in mouse RAW264.7 cells assessed as inhibition of LPS-induced nitric oxide production treated 30 mins before LPS challenge measured after 24 hrs by griess reaction
Format: functional, cell-based
Listing of entries alongside the reported pIC50.
Please note pIC50 is a logarithmic value: minus log10 of concentration in mol/L. Answer with that number alone.

q: Entry `C=C1C(=O)O[C@@H]2C[C@H](C)[C@@H]3CCC(=O)[C@@]3(C)C[C@H]12` has what pIC50?
a: 5.01

q: // lookup pIC50 for `C=C1C(=O)O[C@H]2C[C@@H](C)[C@@H]3C=CC(=O)[C@@]3(C)C[C@H]12`
a: 5.09

q: Any idea what its pIC50 is? The compound is C=C1C(=O)O[C@@H]2CC(C)=C3[C@@H](OC(C)=O)C[C@@](C)(O)[C@@H]3C[C@H]12 [INUCHINENOLIDE B]
a: 5.00
